Test system: HT29 colon
experiment description: NCI tumour cell line growth inhibition, 48 h
Use 20 µM as the dividing line for TGI, with the line itself on the rule met side and lower values as rule not met.

molecule	target system	assigned category
O=C(CCCCN1CCOCC1)Nc1ccc(Cn2nnc3c2C(=O)c2nnn(Cc4ccc(NC(=O)CCCCN5CCOCC5)cc4)c2C3=O)cc1	HT29 colon	rule not met
O=C(Nc1cccc(Cl)c1)Nc1nccs1	HT29 colon	rule met
O=c1cc(NCC(O)CN2CCOCC2)n(Cc2ccccc2)c(=O)n1Cc1ccccc1 (configuration not stated)	HT29 colon	rule met
O=C(CCc1ccc(O)c(O)c1)NCCc1cc(O)cc(OCc2ccccc2)c1	HT29 colon	rule met
NC1=NS(=O)(=O)Nc2nc(-c3ccc(Cl)cc3)[nH]c21	HT29 colon	rule met
CC(=O)N(O)CCCCCNC(=O)CCC(=O)N(O)CCCCCNC(=O)CCC(=O)N(O)CCCCCN	HT29 colon	rule met
O=[N+]([O-])c1ccc(-c2noc(-c3ccccc3)c2C2=NCCN2)cc1	HT29 colon	rule met
CCOC(=O)/C(SC#N)=C(/N)N1CCCC1	HT29 colon	rule met
CN(C)CCNc1ccc(NCC[N+](C)(C)Cc2ccc([N+](=O)[O-])cc2)c2c1C(=O)c1ccccc1C2=O	HT29 colon	rule met
O=S(=O)(Nc1ccc(Cl)cc1)c1ccc(-c2cnc(C3CC3)o2)cc1	HT29 colon	rule not met
CCOP1(=O)C=CC(Cl)=C(C)C1 (configuration not stated)	HT29 colon	rule met
Cc1cc(C2CC(O)C(CO)O2)c(Cl)cc1Cl (configuration not stated)	HT29 colon	rule met
c1ccc([Si](OCCN2CC2)(c2ccccc2)c2ccccc2)cc1	HT29 colon	rule met
Cn1ncc2c(Nc3ccc(Cl)cc3)c3ccccc3nc21	HT29 colon	rule met
CCOC(=O)c1cn2c(n1)sc1cc(C)c(C)cc12	HT29 colon	rule met
COc1cc(/C=C2\N=C(c3ccccc3)N(c3nc4ccc(Sc5ccccc5)cc4[nH]3)C2=O)ccc1O	HT29 colon	rule met
CCC1(O)CC(OC2CC(N(C)C)C(OC3CC(O)C(OC4CCC(=O)C(C)O4)C(C)O3)C(C)O2)c2c(cc3c(c2O)C(=O)c2c(O)ccc(O)c2C3=O)C1C(=O)OC (configuration not stated)	HT29 colon	rule not met
c1ccc2c3ccn4ccc5c6ccccc6[nH]c5c4c-3nc2c1	HT29 colon	rule not met
COc1nc(NC2OCC(OC(C)=O)C(OC(C)=O)C2OC(C)=O)c(-c2csc(N)n2)c(=O)n1C (configuration not stated)	HT29 colon	rule met
CC1(C)C2CCC13C(=O)C1OC3(C2)C2C(=O)N(c3ccccc3)C(=O)C12 (configuration not stated)	HT29 colon	rule met

# credit: PubChem BioAssay (NCI)
